# run_description: CellTiter-Glo luminescent readout of SW480 viability loss, NPC library primary (AID 1117343)
# setup_conditions: CellTiter-Glo luminescence; at 20 µM (top of the series)
Calls of active or inactive are those of the source.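 Rule for the calls: active = compounds that lower viability of the colon cancer cells in the luminescence readout, with no numeric limit stated; inactive = the rest.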
Select the matching outcome among 1.0 = active, 0.0 = inactive

Use these answered entries as a reference point.
>  <input_smiles>
COC(=O)c1cc(Cl)c(NC(C)=O)cc1OC

>  <classification>
0.0

$$$$
>  <input_smiles>
O=C(O)Cc1ccc(CCNS(=O)(=O)c2ccc(Cl)cc2)cc1

>  <classification>
0.0

$$$$
>  <input_smiles>
O=C(OCCN1CCOCC1)c1cccnc1Nc1cccc(C(F)(F)F)c1

>  <classification>
1.0

$$$$
>  <input_smiles>
Nc1c(N=Nc2ccc(-c3ccc(N=Nc4cc(S(=O)(=O)O)c5ccccc5c4N)cc3)cc2)cc(S(=O)(=O)O)c2ccccc12

>  <classification>
0.0

$$$$

We now examine a further molecule.
Exam item: # lookup: test call for `COc1cc(NS(=O)(=O)c2ccc(N)cc2)nc(C)n1`
Marked response: 0.0

* * *

Below, each entry is listed alongside its reported insulin secretion stimulation.
# run_description: stimulators of insulin release from INS-1E, primary screen, cell-based, 5 mM glucose, NPC library (AID 1117329)
# setup_conditions: rat INS-1E insulin secretion, at 10 µM, stronger effect = higher value
Please respond with the number in % and leave the unit unwritten.

>  <molecule>
CN(C)CCOC(c1ccccc1)c1ccccc1

>  <insulin secretion stimulation / %>
14.4

$$$$
>  <molecule>
CC1(C)O[C@@H]2C[C@H]3[C@@H]4CCC5=CC(=O)C=C[C@]5(C)[C@@]4(F)[C@@H](O)C[C@]3(C)[C@]2(C(=O)CO)O1

>  <insulin secretion stimulation / %>
3.4

$$$$
>  <molecule>
CC(C)(C)c1ccc2c(S(=O)(=O)O)c(C(C)(C)C)ccc2c1

>  <insulin secretion stimulation / %>
0.3

$$$$
>  <molecule>
O=C(O)COc1nn(Cc2ccccc2)c2ccccc12

>  <insulin secretion stimulation / %>
-0.7

$$$$
>  <molecule>
CCCN(CCc1cccs1)[C@H]1CCc2c(O)cccc2C1

>  <insulin secretion stimulation / %>
8.95

$$$$

Exam item: I'd like to know its insulin secretion stimulation. The molecule in question is `CCCc1ccc(OCC(=O)N2CCN(C(=O)COc3ccc(CCC)cc3OC)CC2)c(OC)c1`
Marked response: 2.6

Exam item: Please report the recorded insulin secretion stimulation for `NC(=S)N=Nc1ccc(NN=C(N)N)cc1` .
Marked response: 6.7

Exam item: Which insulin secretion stimulation is reported for this molecule? `c1ccc(CC2=NCCN2)cc1`
Marked response: -1

Exam item: Can you share its insulin secretion stimulation? I mean this molecule: CC(=O)CC(c1ccccc1)c1c(O)c2ccccc2oc1=O (stereo unspecified)
Marked response: 0.2

Exam item: I have this molecule here, `Nc1ccc(S(=O)(=O)NCc2ccccc2)cc1` , and I need its recorded insulin secretion stimulation.
Marked response: -2.5

Exam item: What insulin secretion stimulation value was documented for this molecule, `CCCCCCCCCCCCCCCCCCNC(=O)OC1CCN(C(=O)OC[C@H](COC(=O)N(Cc2cccc[n+]2CC)C(=O)c2ccccc2OC)OC)CC1` ?
Marked response: 117

* * *

# tgt: Cellular tumor antigen p53 (Homo sapiens) (UniProt P04637)
# Sequence (P04637 whole entry, looked up): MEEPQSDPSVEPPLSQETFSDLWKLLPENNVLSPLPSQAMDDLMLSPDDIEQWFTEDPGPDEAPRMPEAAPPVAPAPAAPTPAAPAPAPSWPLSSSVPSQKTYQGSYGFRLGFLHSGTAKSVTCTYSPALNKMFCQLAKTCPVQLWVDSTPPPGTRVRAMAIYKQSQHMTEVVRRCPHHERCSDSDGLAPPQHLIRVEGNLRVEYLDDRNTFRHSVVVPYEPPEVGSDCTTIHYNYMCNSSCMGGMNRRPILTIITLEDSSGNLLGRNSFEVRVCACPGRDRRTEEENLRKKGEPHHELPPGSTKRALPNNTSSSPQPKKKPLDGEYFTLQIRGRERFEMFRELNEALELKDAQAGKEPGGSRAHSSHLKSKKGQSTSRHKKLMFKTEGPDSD
# run_description: kinase inhibitors altering GFP-p53 stability in HPV16-positive cells, imaging, known kinase inhibitor set, EGFP/DsRed ratio (AID 1053116);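 note: cells exposed to compounds for 24 h at 37 °C before reading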
# setup_conditions: stronger effect = higher value; measured here: GFP-p53 positive objects count
I would appreciate it if you labelled entries y when EGFP object count is 4 or higher, otherwise n.

Examples from the recorded data:
>  <compound>
Nc1c(C(=O)c2cccc(C#CCO)c2)cnn1-c1ccc(F)cc1

>  <classification>
n

$$$$
>  <compound>
Cn1c(=O)c(Cc2ccc(F)cc2F)cc2cnc(NC3CCOCC3)nc21

>  <classification>
n

$$$$
>  <compound>
Cc1[nH]n(-c2ccccc2)c(=O)c1C(=O)c1ccccc1

>  <classification>
y

$$$$

Exam item: Could you verify whether the entry `c1ccc(COc2ccc(Nc3ncnc4ccc(-c5ccco5)cc34)cc2)cc1` shows EGFP object count of no less than 4?
Marked response: n

* * *

# run_description: stimulators of nuclear beta-catenin in C2C12, primary screen, imaging, WNT3A-conditioned medium, mouse C2C12, NPC library (AID 1117326)
# setup_conditions: stimulation, at 2 µM, stronger effect = higher value
property_name: nuclear beta-catenin stimulation (%)
Express the result in % but write the number alone.

>  <molecule>
C=CCN1C(=O)C(CC(C)C)NC1=S (configuration not stated)

>  <nuclear beta-catenin stimulation (%)>
0.3

$$$$
>  <molecule>
OCCN1CCN(CCCN2c3ccccc3Sc3ccc(C(F)(F)F)cc32)CC1

>  <nuclear beta-catenin stimulation (%)>
6.3

$$$$
>  <molecule>
COc1cc(C=C2CCC/C(=C\c3ccc(O)c(OC)c3)C2=O)ccc1O

>  <nuclear beta-catenin stimulation (%)>
4.1

$$$$
>  <molecule>
CCOC(=O)c1ccc(O)c(O)c1

>  <nuclear beta-catenin stimulation (%)>
3.4

$$$$
>  <molecule>
O=C(O)[C@@H]1CCCN1

>  <nuclear beta-catenin stimulation (%)>
1.2

$$$$

Exam item: Consider the molecule shown here: `Cc1cc(O)c(C)c(C)c1O` What is its recorded nuclear beta-catenin stimulation?
Marked response: -0.4

Exam item: Given the entry `CCN(CC)CCOC(=O)C1(c2ccccc2)CCCC1` , report its measured nuclear beta-catenin stimulation.
Marked response: -0.5

* * *

# run_description: inhibition of endothelial tube formation, primary screen, imaging, VEGF stimulated, CD31 staining, tube area, NPC library (AID 1117340)
# setup_conditions: VEGF-stimulated ADSC/ECFC co-culture, at 10 µM
Active and inactive are the calls of the source.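 Rule for the calls: active = compound that reduces growth-factor-driven endothelial tube area in a mixed cell culture, no cutoff stated; inactive = the rest.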
Respond only with the outcome that fits, drawn from active, inactive

>  <molecule>
N[C@H]1CN(c2c(F)cc3c(=O)c(C(=O)O)cn(C4C[C@@H]4F)c3c2Cl)CC12CC2 (stereo partly drawn)

>  <classification>
inactive

$$$$
>  <molecule>
O=c1[nH]cnc2[nH]ncc12

>  <classification>
inactive

$$$$
>  <molecule>
CN(C)CCCN1c2ccccc2CCc2ccc(Cl)cc21

>  <classification>
inactive

$$$$

Exam item: How did this test come out for `C=Cc1ccccc1` ?
Marked response: inactive

Exam item: Assay result, entry CCN1CCCC1CN (stereo not drawn) — outcome?
Marked response: inactive

Exam item: Could you kindly confirm the outcome this assay logged for `CCCCCCCC/C=C/C(=O)O` ?
Marked response: inactive

Exam item: Give the logged outcome of this assay for the following molecule: `COc1ccc(CCC(C)=O)cc1`
Marked response: inactive

Exam item: Check the results log: what was the call for `NS(=O)(=O)c1cc2c(cc1Cl)NCNS2(=O)=O` ?
Marked response: inactive

Exam item: Just curious, what result did `CCOC(=O)[C@H](CCc1ccccc1)N[C@H]1CCCN2CCC[C@@H](C(=O)O)N2C1=O` get here?
Marked response: inactive

Exam item: Hello, I am checking results. What call was entered for `CC(=O)CCC(=O)O` ?
Marked response: inactive

Exam item: Hello, I am checking results. What call was entered for `CCCCCC[C@@H](CCC)C(=O)O` ?
Marked response: inactive

Exam item: Test call, this molecule: `CCCCCCNC(=O)n1cc(F)c(=O)[nH]c1=O`
Marked response: active

Exam item: In this assay, the call recorded for `CCc1cc2cc(OC)c(OC)cc2c(Cc2ccccc2)n1` was what?
Marked response: inactive

* * *

# run_description: fluorescence interference in NS3h assay format, artefact control for HCV NS3 helicase inhibitor project, biochemical, NIH Clinical Collection (AID 743272);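 note: HCV NS3 helicase with a Cy5 labelled single stranded DNA probe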
# setup_conditions: fluorescence interference counterscreen, stronger effect = lower value
property_name: fluorescence ratio
Please give the numeric answer without any surrounding text.

>  <molecule>
NC(N)=NC(=O)c1nc(Cl)c(N)nc1N

>  <fluorescence ratio>
0.9

$$$$
>  <molecule>
CCOc1ccc2ccccc2c1C(=O)N[C@@H]1C(=O)N2[C@@H]1SC(C)(C)[C@@H]2C(=O)O

>  <fluorescence ratio>
0.98

$$$$
>  <molecule>
CC(C)(C)NCC(O)COc1cccc2c1C[C@H](O)[C@H](O)C2 (stereo partly specified)

>  <fluorescence ratio>
0.9

$$$$

Exam item: For the molecule shown here, `CC(=O)O[C@]1(C(C)=O)CC[C@H]2[C@@H]3C=C(C)C4=CC(=O)CC[C@]4(C)[C@H]3CC[C@@]21C` , give the reported fluorescence ratio.
Marked response: 0.98

Exam item: Fill blank: measured fluorescence ratio of the molecule CC1COc2c(N3CCN(C)CC3)c(F)cc3c(=O)c(C(=O)O)cn1c23 (stereo unspecified) is ____.
Marked response: 0.87

* * *

# run_description: sensitizers of A549 cells to miR-34 induction, primary screen, imaging, A549 dox-inducible miR-34, nuclei and caspase counts (AID 1347080)
# setup_conditions: A549 miR-34 inducible, Hoechst nuclei count, 48 h; measured here: total cells with miR-34 induction; stronger effect = lower value
property_name: cell count
// print number alone

>  <input_smiles>
O[C@@H](c1cc(C(F)(F)F)nc2c(C(F)(F)F)cccc12)[C@H]1CCCCN1

>  <cell count>
950

$$$$
>  <input_smiles>
CN(C)c1cc2c(Nc3ccc4c(cnn4Cc4ccccc4)c3)ncnc2cn1

>  <cell count>
3320

$$$$
>  <input_smiles>
COc1cc2ncn(-c3cc(OCc4ccccc4C(F)(F)F)c(C(N)=O)s3)c2cc1OC

>  <cell count>
1110

$$$$

Now look at this one.
Exam item: Quick one: cell count for `CC(=O)OCC(=O)[C@@]1(O)CC[C@H]2[C@@H]3CCC4=CC(=O)C=C[C@]4(C)[C@H]3[C@@H](O)C[C@@]21C` ?
Marked response: 8020

Data origin, for the record: PubChem BioAssay
